// data source = ChEMBL document CHEMBL2380214

Biological target: Epidermal growth factor receptor (Homo sapiens)
attribute-measured: IC50 (nM)

Consider the reported IC50 for these compounds:
C=CC(=O)Nc1cccc(Oc2nc(Nc3ccc(N4CCN(CC(=O)NCCOc5no[n+]([O-])c5S(=O)(=O)c5ccccc5)CC4)cc3OC)ncc2Cl)c1 = 51
C=CC(=O)Nc1cccc(Oc2nc(Nc3ccc(N4CCN(CC(=O)NCCCOc5no[n+]([O-])c5S(=O)(=O)c5ccccc5)CC4)cc3OC)ncc2Cl)c1 = 59

I = C=CC(=O)Nc1cccc(Oc2nc(Nc3ccc(N4CCN(CC(=O)OCCCCCCOc5no[n+]([O-])c5S(=O)(=O)c5ccccc5)CC4)cc3OC)ncc2Cl)c1
II = C=CC(=O)Nc1cccc(Oc2nc(Nc3ccc(N4CCN(CC(=O)OCC#CCOc5no[n+]([O-])c5S(=O)(=O)c5ccccc5)CC4)cc3OC)ncc2Cl)c1
III = C=CC(=O)Nc1cccc(Oc2nc(Nc3ccc(N4CCN(CC(=O)OCCCCOc5no[n+]([O-])c5S(=O)(=O)c5ccccc5)CC4)cc3OC)ncc2Cl)c1
Arrange the 3 compounds by rising IC50, starting with the smallest. Answer format: the labels, ordered as requested.
II, III, I

====

Assay: Selectivity ratio of IC50 for human BEAS2B cells harboring wild type EGFR to IC50 for gefitinib-sensitive human HCC827 cells harboring EGFR […] deletion mutant
Assay type: ADME, cell-based
Conditions: read-out: Ratio IC50
Recorded selectivity ratio, one value per entry.
Provide a numeric answer; units are not to be included.

C=CC(=O)Nc1cccc(Oc2nc(Nc3ccc(N4CCN(CC(=O)OCCCCCCOc5no[n+]([O-])c5S(=O)(=O)c5ccccc5)CC4)cc3OC)ncc2Cl)c1 = 40

Please examine the following record next.
Suppose we examine the molecule `C=CC(=O)Nc1cccc(Oc2nc(Nc3ccc(N4CCN(CC(=O)OCCCCOc5no[n+]([O-])c5S(=O)(=O)c5ccccc5)CC4)cc3OC)ncc2Cl)c1` ; what selectivity ratio value has been reported?
40

====

pIC50: −log10 of the molar value.
The following molecules have recorded pIC50 on Epidermal growth factor receptor (Homo sapiens, UniProt P00533, L858R).
Sequence (P00533 25-1210 L858R limits assumed): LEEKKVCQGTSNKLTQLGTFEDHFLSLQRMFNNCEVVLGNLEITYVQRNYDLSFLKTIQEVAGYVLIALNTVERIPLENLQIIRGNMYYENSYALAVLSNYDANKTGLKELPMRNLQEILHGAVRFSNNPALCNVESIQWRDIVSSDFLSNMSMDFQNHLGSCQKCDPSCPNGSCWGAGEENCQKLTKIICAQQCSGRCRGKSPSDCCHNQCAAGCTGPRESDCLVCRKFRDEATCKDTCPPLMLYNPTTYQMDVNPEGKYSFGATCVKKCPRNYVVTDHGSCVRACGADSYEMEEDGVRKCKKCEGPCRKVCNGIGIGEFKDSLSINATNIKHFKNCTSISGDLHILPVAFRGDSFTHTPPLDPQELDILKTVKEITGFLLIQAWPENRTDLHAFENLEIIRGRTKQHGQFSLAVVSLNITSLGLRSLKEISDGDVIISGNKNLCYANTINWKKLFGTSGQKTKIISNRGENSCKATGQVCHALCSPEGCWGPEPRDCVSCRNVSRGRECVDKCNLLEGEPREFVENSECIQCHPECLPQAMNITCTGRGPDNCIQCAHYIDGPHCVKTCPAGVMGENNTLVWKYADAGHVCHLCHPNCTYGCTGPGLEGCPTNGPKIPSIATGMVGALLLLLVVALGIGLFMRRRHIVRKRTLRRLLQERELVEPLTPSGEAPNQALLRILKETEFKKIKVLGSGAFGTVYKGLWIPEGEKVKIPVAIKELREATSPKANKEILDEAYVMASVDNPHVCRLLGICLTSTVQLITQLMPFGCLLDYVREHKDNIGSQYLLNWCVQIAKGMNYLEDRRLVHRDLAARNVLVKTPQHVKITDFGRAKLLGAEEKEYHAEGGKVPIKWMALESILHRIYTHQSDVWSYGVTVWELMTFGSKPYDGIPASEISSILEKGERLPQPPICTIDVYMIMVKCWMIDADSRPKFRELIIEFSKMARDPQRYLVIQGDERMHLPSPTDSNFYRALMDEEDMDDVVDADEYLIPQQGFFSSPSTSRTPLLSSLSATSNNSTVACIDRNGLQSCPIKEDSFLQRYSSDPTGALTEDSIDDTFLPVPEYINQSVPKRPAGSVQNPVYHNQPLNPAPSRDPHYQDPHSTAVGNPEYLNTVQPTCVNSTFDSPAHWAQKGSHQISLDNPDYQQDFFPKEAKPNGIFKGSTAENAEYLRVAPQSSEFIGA
attribute-measured: pIC50

Consider the reported pIC50 for these molecules:
C=CC(=O)Nc1cccc(Oc2nc(Nc3ccc(N4CCN(CC(=O)OCCOCCOc5no[n+]([O-])c5S(=O)(=O)c5ccccc5)CC4)cc3OC)ncc2Cl)c1 = 6.95
C=CC(=O)Nc1cccc(Oc2nc(Nc3ccc(N4CCN(CC(=O)N5CCC(Oc6no[n+]([O-])c6S(=O)(=O)c6ccccc6)CC5)CC4)cc3OC)ncc2Cl)c1 = 7.18
C=CC(=O)Nc1cccc(Oc2nc(Nc3ccc(N4CCN(CC(=O)OCC#CCOc5no[n+]([O-])c5S(=O)(=O)c5ccccc5)CC4)cc3OC)ncc2Cl)c1 = 7.19

1 = C=CC(=O)Nc1cccc(Oc2nc(Nc3ccc(N4CCN(CC(=O)OCCOc5no[n+]([O-])c5S(=O)(=O)c5ccccc5)CC4)cc3OC)ncc2Cl)c1
2 = C=CC(=O)Nc1cccc(Oc2nc(Nc3ccc(N4CCN(CC(=O)OCCCCOc5no[n+]([O-])c5S(=O)(=O)c5ccccc5)CC4)cc3OC)ncc2Cl)c1
// which entry has the larger pIC50 value, 1 or 2 ? When you have decided, please share the label of that item.
1

====

Experiment: Selectivity ratio of IC50 for human BEAS2B cells harboring wild type EGFR to IC50 for gefitinib-resistant human NCI-H1975 cells harboring EGFR L858R/[…] double mutant
Type: ADME, cell-based
Conditions: read-out: Ratio IC50
attribute-measured: selectivity ratio
Provide a numeric answer; units are not to be included.

C=CC(=O)Nc1cccc(Oc2nc(Nc3ccc(N4CCN(CC(=O)OCCCCCCOc5no[n+]([O-])c5S(=O)(=O)c5ccccc5)CC4)cc3OC)ncc2Cl)c1 = 40

Please examine the following record next.
Suppose we examine the compound `C=CC(=O)Nc1cccc(Oc2nc(Nc3ccc(N4CCN(CC(=O)OCCCCOc5no[n+]([O-])c5S(=O)(=O)c5ccccc5)CC4)cc3OC)ncc2Cl)c1` ; what selectivity ratio value has been reported?
40

====

Experiment: Selectivity ratio of IC50 for human 16HBE14o- cells harboring wild type EGFR to IC50 for gefitinib-sensitive human HCC827 cells harboring EGFR […] deletion mutant
Assay type: ADME, cell-based
Settings: read-out: Ratio IC50
attribute-measured: selectivity ratio
Provide a numeric answer; units are not to be included.

C=CC(=O)Nc1cccc(Oc2nc(Nc3ccc(N4CCN(CC(=O)OCCCCOc5no[n+]([O-])c5S(=O)(=O)c5ccccc5)CC4)cc3OC)ncc2Cl)c1 = 40

Suppose we examine the molecule `C=CC(=O)Nc1cccc(Oc2nc(Nc3ccc(N4CCN(CC(=O)OCCCCCCOc5no[n+]([O-])c5S(=O)(=O)c5ccccc5)CC4)cc3OC)ncc2Cl)c1` ; what selectivity ratio value has been reported?
40

====

pIC50: −log10 of the molar value.
The following compounds have recorded pIC50 on Epidermal growth factor receptor (Homo sapiens, UniProt P00533, L858R).
attribute-measured: pIC50

Consider the reported pIC50 for these compounds:
C=CC(=O)Nc1cccc(Oc2nc(Nc3ccc(N4CCN(CC(=O)OCCCCCCOc5no[n+]([O-])c5S(=O)(=O)c5ccccc5)CC4)cc3OC)ncc2Cl)c1 = 6.52
C=CC(=O)Nc1cccc(Oc2nc(Nc3ccc(N4CCN(CC(=O)N5CCN(CCOc6no[n+]([O-])c6S(=O)(=O)c6ccccc6)CC5)CC4)cc3OC)ncc2Cl)c1 = 7.40
C=CC(=O)Nc1cccc(Oc2nc(Nc3ccc(N4CCN(CC(=O)NCCCOc5no[n+]([O-])c5S(=O)(=O)c5ccccc5)CC4)cc3OC)ncc2Cl)c1 = 7.17
C=CC(=O)Nc1cccc(Oc2nc(Nc3ccc(N4CCN(CC(=O)OCCCOc5no[n+]([O-])c5S(=O)(=O)c5ccccc5)CC4)cc3OC)ncc2Cl)c1 = 7.01

1 = C=CC(=O)Nc1cccc(Oc2nc(Nc3ccc(N4CCN(CC(=O)NCCOc5no[n+]([O-])c5S(=O)(=O)c5ccccc5)CC4)cc3OC)ncc2Cl)c1
2 = C=CC(=O)Nc1cccc(Oc2nc(Nc3ccc(N4CCN(CC(=O)NCC(C)Oc5no[n+]([O-])c5S(=O)(=O)c5ccccc5)CC4)cc3OC)ncc2Cl)c1 (stereo unspecified)
Please let me know which one, 1 or 2 , has a lower measured pIC50 value. When you have decided, please share the label of that item.
2

====

Assay: Selectivity ratio of IC50 for human 16HBE14o- cells harboring wild type EGFR to IC50 for gefitinib-resistant human NCI-H1975 cells harboring EGFR L858R/[…] double mutant
Type: ADME, cell-based
Conditions: read-out: Ratio IC50
Recorded selectivity ratio, one value per entry.
Provide a numeric answer; units are not to be included.

C=CC(=O)Nc1cccc(Oc2nc(Nc3ccc(N4CCN(CC(=O)OCCCCOc5no[n+]([O-])c5S(=O)(=O)c5ccccc5)CC4)cc3OC)ncc2Cl)c1 = 40

Please examine the following record next.
Suppose we examine the compound `C=CC(=O)Nc1cccc(Oc2nc(Nc3ccc(N4CCN(CC(=O)OCCCCCCOc5no[n+]([O-])c5S(=O)(=O)c5ccccc5)CC4)cc3OC)ncc2Cl)c1` ; what selectivity ratio value has been reported?
40

====

pIC50: −log10 of the molar value.
The following compounds have recorded pIC50 on Epidermal growth factor receptor (Homo sapiens, UniProt P00533, L858R/T790M).
Sequence (P00533 25-1210 T790M/L858R limits assumed): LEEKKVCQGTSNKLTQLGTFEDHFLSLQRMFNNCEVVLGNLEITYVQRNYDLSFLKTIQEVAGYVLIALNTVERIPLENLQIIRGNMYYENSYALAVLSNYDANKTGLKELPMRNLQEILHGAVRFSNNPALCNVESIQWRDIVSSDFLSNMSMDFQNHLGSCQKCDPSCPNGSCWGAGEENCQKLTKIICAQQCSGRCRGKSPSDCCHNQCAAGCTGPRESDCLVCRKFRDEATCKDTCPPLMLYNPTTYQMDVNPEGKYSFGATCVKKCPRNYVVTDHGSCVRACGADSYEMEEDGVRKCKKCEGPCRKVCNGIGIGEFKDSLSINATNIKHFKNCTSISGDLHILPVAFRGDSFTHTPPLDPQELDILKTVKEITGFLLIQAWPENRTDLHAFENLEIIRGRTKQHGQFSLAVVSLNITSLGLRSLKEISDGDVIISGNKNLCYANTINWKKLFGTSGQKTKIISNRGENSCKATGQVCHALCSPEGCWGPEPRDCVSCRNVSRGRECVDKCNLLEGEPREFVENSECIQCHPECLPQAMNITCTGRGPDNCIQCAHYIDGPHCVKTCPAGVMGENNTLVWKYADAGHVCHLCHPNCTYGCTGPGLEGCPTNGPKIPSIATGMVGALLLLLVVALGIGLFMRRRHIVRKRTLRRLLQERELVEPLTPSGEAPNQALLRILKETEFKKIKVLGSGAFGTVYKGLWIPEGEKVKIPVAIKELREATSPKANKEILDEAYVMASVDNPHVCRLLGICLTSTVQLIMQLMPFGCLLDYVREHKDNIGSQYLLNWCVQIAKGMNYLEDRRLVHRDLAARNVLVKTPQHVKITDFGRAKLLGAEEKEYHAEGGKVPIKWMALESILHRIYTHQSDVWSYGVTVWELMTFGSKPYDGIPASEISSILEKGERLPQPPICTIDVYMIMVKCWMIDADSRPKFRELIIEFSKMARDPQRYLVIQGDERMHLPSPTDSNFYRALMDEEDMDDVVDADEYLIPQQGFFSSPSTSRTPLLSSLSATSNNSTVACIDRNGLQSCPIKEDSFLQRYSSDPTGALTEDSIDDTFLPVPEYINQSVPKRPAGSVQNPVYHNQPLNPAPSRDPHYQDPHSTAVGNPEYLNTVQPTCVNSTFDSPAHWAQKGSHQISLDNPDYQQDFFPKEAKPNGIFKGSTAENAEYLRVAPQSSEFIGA
attribute-measured: pIC50

Consider the reported pIC50 for these compounds:
C=CC(=O)Nc1cccc(Oc2nc(Nc3ccc(N4CCN(CC(=O)NCC(C)Oc5no[n+]([O-])c5S(=O)(=O)c5ccccc5)CC4)cc3OC)ncc2Cl)c1 (stereo unspecified) = 7.70
C=CC(=O)Nc1cccc(Oc2nc(Nc3ccc(N4CCN(CC(=O)OCCOc5no[n+]([O-])c5S(=O)(=O)c5ccccc5)CC4)cc3OC)ncc2Cl)c1 = 7.77

A = C=CC(=O)Nc1cccc(Oc2nc(Nc3ccc(N4CCN(CC(=O)OCCCCCCOc5no[n+]([O-])c5S(=O)(=O)c5ccccc5)CC4)cc3OC)ncc2Cl)c1
B = C=CC(=O)Nc1cccc(Oc2nc(Nc3ccc(N4CCN(CC(=O)NCCCOc5no[n+]([O-])c5S(=O)(=O)c5ccccc5)CC4)cc3OC)ncc2Cl)c1
// which entry has the larger pIC50 value, A or B ? When you have decided, please share the label of that item.
B
(B: 7.89, A: 7.33)

====

pIC50: −log10 of the molar value.
The following molecules have recorded pIC50 on Epidermal growth factor receptor (Homo sapiens, UniProt P00533, L858R/T790M).
attribute-measured: pIC50

C=CC(=O)Nc1cccc(Oc2nc(Nc3ccc(N4CCN(CC(=O)OCCOCCOc5no[n+]([O-])c5S(=O)(=O)c5ccccc5)CC4)cc3OC)ncc2Cl)c1 = 7.52

I = C=CC(=O)Nc1cccc(Oc2nc(Nc3ccc(N4CCN(CC(=O)OCCCCOc5no[n+]([O-])c5S(=O)(=O)c5ccccc5)CC4)cc3OC)ncc2Cl)c1
II = C=CC(=O)Nc1cccc(Oc2nc(Nc3ccc(N4CCN(CC(=O)N5CCC(Oc6no[n+]([O-])c6S(=O)(=O)c6ccccc6)CC5)CC4)cc3OC)ncc2Cl)c1
III = C=CC(=O)Nc1cccc(Oc2nc(Nc3ccc(N4CCN(CC(=O)N5CCN(CCOc6no[n+]([O-])c6S(=O)(=O)c6ccccc6)CC5)CC4)cc3OC)ncc2Cl)c1
IV = C=CC(=O)Nc1cccc(Oc2nc(Nc3ccc(N4CCN(CC(=O)OCCCOc5no[n+]([O-])c5S(=O)(=O)c5ccccc5)CC4)cc3OC)ncc2Cl)c1
Please give the order of these molecules when sorted by pIC50, largest value leading. Answer format: the labels, ordered as requested.
III, II, IV, I
(III: 8.22, II: 7.89, IV: 7.64, I: 7.42)
